# system name: RORγt (Homo sapiens)
# Sequence (P51449 1-497 isoform P51449-2, species assumed): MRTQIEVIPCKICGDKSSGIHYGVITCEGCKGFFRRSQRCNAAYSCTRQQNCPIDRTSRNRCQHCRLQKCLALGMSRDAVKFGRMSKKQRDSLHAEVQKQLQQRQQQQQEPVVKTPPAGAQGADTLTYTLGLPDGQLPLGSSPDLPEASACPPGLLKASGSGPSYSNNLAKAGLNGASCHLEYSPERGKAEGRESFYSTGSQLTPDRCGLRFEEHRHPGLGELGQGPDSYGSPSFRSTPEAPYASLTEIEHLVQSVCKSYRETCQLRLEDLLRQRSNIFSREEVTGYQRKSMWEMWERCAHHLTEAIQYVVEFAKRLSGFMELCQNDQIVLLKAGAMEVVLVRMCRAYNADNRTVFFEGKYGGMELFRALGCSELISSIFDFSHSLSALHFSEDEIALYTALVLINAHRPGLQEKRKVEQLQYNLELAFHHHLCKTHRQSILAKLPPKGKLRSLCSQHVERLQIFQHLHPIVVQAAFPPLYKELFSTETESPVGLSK
# experiment: RORγt binding test (TR-FRET, fluorescent-labeled cholesterol)
# recorded conditions: test compound 1 μM, histidine-tagged RORγt, read-out: binding inhibitory rate of fluorescent-labeled cholesterol to RORγt
experimental readout: inhibition at 1 µM (%)

chem smiles	value observed
CC(C)(C)n1ncc(-c2nc(CC(=O)NCC3CCOCC3)cs2)c1-c1ccc(Cl)cc1	97.8
CC(C)(C)n1ncc(-c2nc(CC(=O)NCC3CCOCC3)cs2)c1-c1cc2ccccc2s1	98.7
CN(Cc1ccncc1)C(=O)Cc1csc(-c2cnn(C(C)(C)C)c2-c2ccc(F)cc2)n1	96.1
COc1ccc(-c2c(-c3nc(CC(=O)NCC4CCOCC4)cs3)cnn2C(C)(C)C)cc1F	95.9

Hey, just so you know, these numbers are from patent US9156837B2.
